molecular target: IRAK4 (Homo sapiens (Human)); experiment: IRAK4 kinase activity, IMAP fluorescence polarization assay; format: biochemical; details: 100 μM ATP; read-out: IC50
Sequence (Q9NWZ3 whole entry): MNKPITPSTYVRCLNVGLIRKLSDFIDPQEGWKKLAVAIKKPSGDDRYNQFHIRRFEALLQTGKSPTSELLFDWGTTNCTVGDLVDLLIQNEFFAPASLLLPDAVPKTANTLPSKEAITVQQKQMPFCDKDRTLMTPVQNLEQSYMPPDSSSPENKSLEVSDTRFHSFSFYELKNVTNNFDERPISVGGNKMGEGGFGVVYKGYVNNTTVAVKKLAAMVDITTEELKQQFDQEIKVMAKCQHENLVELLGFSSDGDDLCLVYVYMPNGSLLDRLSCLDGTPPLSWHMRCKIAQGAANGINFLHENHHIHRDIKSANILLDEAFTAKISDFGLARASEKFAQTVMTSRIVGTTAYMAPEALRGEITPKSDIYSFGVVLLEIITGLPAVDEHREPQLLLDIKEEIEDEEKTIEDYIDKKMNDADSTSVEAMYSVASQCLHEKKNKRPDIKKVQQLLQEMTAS
Counter-ions that a name gives are not always drawn.
Observable: IC50 (nM)

>>> number("O=c1[nH]c(C2CCN(C3CCC3)CC2)nc(N[C@@H]2CCCNC2)c1-c1nc2ccccc2s1")
730
>>> number("N[C@H]1C[C@H]1Nc1nc(N2CCOCC2)[nH]c(=O)c1-c1nc2ccccc2s1")
3000
>>> number("O=c1[nH]c(N[C@H]2c3ccccc3C[C@H]2O)nc(N[C@@H]2CCCNC2)c1-c1nc2ccccc2s1")
2500
>>> number("O=c1[nH]c(N2CCOCC2)nc(NCCN2CCCCC2)c1-c1nc2ccccc2s1")
2
>>> number("COC1CCN(c2nc(N[C@@H]3CCCNC3)c(-c3nc4ccccc4s3)c(=O)[nH]2)CC1")
63
>>> number("O=c1[nH]c(N2CCOCC2)nc(NC2CCC(O)CC2)c1-c1nc2ccccc2s1 (stereo not shown)")
620
>>> number("CNC(=O)C1CN(c2nc(N[C@@H]3CCCNC3)c(-c3nc4ccccc4s3)c(=O)[nH]2)CCO1 (stereo partly shown)")
110
>>> number("CC1CCCCN1c1nc(N[C@@H]2CCCNC2)c(-c2nc3ccccc3s2)c(=O)[nH]1 (stereo partly shown)")
280
>>> number("O=c1[nH]c(N2CCOCC2)nc(NCCN2CCCC2)c1-c1nc2ccccc2s1")
2200
>>> number("CCOC(=O)C1CN(c2nc(N[C@@H]3CCCNC3)c(-c3nc4ccccc4s3)c(=O)[nH]2)CCO1 (stereo partly shown)")
180
>>> number("O=c1[nH]c(N2CCC(F)(F)CC2)nc(N[C@@H]2CCCNC2)c1-c1nc2ccccc2s1")
78
>>> number("NC(=O)C1CCN(c2nc(N[C@@H]3CCCNC3)c(-c3nc4ccccc4s3)c(=O)[nH]2)CC1 [Example 318, hydrochloride]")
74
>>> number("CN(CCO)c1nc(N[C@@H]2CCCNC2)c(-c2nc3ccccc3s2)c(=O)[nH]1")
190
>>> number("O=C1CCCN1c1cccc(-c2c(N[C@@H]3CCCNC3)nc(N3CCOCC3)[nH]c2=O)n1")
258
>>> number("O=c1[nH]c(C2CCN(C3CCCCC3)CC2)nc(N[C@@H]2CCCNC2)c1-c1nc2ccccc2s1")
450
>>> number("CN(C)c1nc(N[C@@H]2CCCNC2)c(-c2nc3ccccc3s2)c(=O)[nH]1")
74
